measured.property: melting point

Examples with their reported melting point follow.
O=c1[nH]c(=O)n(C2CC(F)C(CO)O2)cc1C#CI (stereo not given) ... 140 °C
CC(=N)NC(=O)Nc1ccccc1 ... 204 to 206 °C
O=C1Nc2cc([N+](=O)[O-])ccc2OC1(C(F)F)C(F)F ... 178 to 181 °C

Data request: If you can, please state the reported melting point value of "O=C(O)COc1ccc2c(c1)C[C@H](NC[C@H](O)c1cccc(Cl)c1)CCC2" .
Data returned: 265 to 266 °C

Data request: Now consider "CN1CCOc2cc(O)ccc21" .
Data returned: 84 to 87 °C

Data request: Now consider "Cc1cc(=O)n(O)c(C)c1Cc1ccccc1" .
Data returned: 165 °C

Data request: Now consider "CCOC(=O)c1cc(=O)c2cc3c(=O)cc(C(=O)OCC)oc3cc2[nH]1" .
Data returned: 201 to 202 °C

Data request: Now consider CC(=O)OCC(=O)C1(O)C(C)CC2C3CCC4=CC(=O)C=CC4(C)C34OC4CC21C (stereo not given) .
Data returned: 180 to 186 °C

Data request: Now consider "O=C(CC1(Sc2ccc(Oc3ccc(Cl)cc3)cc2)CCOCC1)NO" .
Data returned: 50 to 55 °C

Data request: Now consider "Cc1cc(C#N)cc(C(=O)Nc2cccc(C(F)(F)F)c2)n1" .
Data returned: 167 °C

----------
Measured melting point of individual entries

Examples with their reported melting point follow.
COc1ccc(C2=NN(c3ccc(C(=O)Nc4ccc(-c5ccc(=O)[nH]n5)cc4)cc3)C(=O)[C@H]3CC=CC[C@@H]23)cc1OC (relative stereo) ... 272 to 273 °C
COC(=O)C1CC(=O)N(c2cc(C(F)(F)F)cc(C(F)(F)F)c2)C1 (configuration not stated) ... 68 to 70 °C
CCc1ccc(C=NNC(=O)c2ccc(O)cc2)s1 ... 194 °C
COC(=O)Cc1cccc(NC(=O)NCC(=O)O)c1 ... 136 °C

Data request: If you can, please state the reported melting point value of CC(C)(C)C(=O)C(Br)Cc1ccc(Cl)cc1 (configuration not stated) .
Data returned: 48 to 50 °C

Data request: Now consider CCC(Nc1ccncc1)c1ccccc1 (configuration not stated) .
Data returned: 190 to 192 °C

Data request: Now consider O=C(CCC1CCCCC1)NC1N=C(c2ccccc2)c2ccccc2-n2c1noc2=O (configuration not stated) .
Data returned: 226 °C

Data request: Now consider "CC(C)c1nc(COCc2ccccc2)n(CCO)c1Sc1cc(Cl)cc(Cl)c1" .
Data returned: 78 to 80 °C

Data request: Now consider "CC#Cc1ccc(NC(=O)c2cccnc2Cl)cc1" .
Data returned: 136 to 138 °C

Data request: Now consider CN(C)CC(O)COc1ccc2c(c1)OC(C)(C)CC2c1cccc2ccccc12 (configuration not stated) .
Data returned: 123 to 125 °C

Data request: Now consider CC(C)(C)OC(=O)N1CC(CCl)c2c1ccc1cc(C#N)ccc21 (configuration not stated) .
Data returned: 171 to 172 °C

----------
measured.property: melting point

Examples with their reported melting point follow.
CCCCc1nc(Cl)c(CO)n1Cc1ccc(-c2ccccc2-c2n[nH]c(=O)o2)cc1 ... 163 to 164 °C
Brc1ccc(N2CCN(Cc3c[nH]c4ncccc34)CC2)cc1 ... 234 to 238 °C
CSc1sc(C2NCCO2)c2c1C(=O)CC(C)(C)C2 (stereo not given) ... 190 to 193 °C
O=C1CC[C@](CO)(COCc2ccccc2)O1 ... 78 °C

Moving on to another molecule below.
Data request: If you can, please state the reported melting point value of "O=c1ccc(C(F)(F)F)cn1Cc1ccccc1NCCCl" .
Data returned: 93.5 to 95 °C

----------
Measured melting point of individual entries

CC(C)(COC(=O)c1ccc(C(=O)O)cc1)COC(=O)c1ccc(C(=O)O)cc1 ... 287 to 288 °C
CSc1cc(C(C)=O)ccc1OCCCN1CCC(c2noc3cc(F)ccc23)CC1 ... 150 to 152 °C
CSc1nc2c(n1-c1ccccc1)CCCC2 ... 112 °C
O=C1CC2(c3ccccc3)CCCC=C2C(=O)N1 (stereo not given) ... 241 to 243 °C
Oc1c2c(nn1-c1nc3ccccc3s1)CCc1ccccc1-2 ... 234 to 235 °C

Data request: If you can, please state the reported melting point value of "O=[N+]([O-])c1ccc2c(c1)S(=O)(=O)NCN2C1CC1" .
Data returned: 198 to 201 °C

Data request: Now consider "CCN(CC)C(=O)c1c(C(=O)OC)ccc(F)c1[Si](C)(C)C" .
Data returned: 46 °C

Data request: Now consider "Cn1cc(CC#N)c2cc([N+](=O)[O-])ccc21" .
Data returned: 165 to 166 °C

Data request: Now consider "C#CCOc1ccc2c(C)nnc(Cl)c2c1" .
Data returned: 169 to 171 °C

Data request: Now consider "CCOc1ccc(NCc2cc(OC)c(OC)c(OC)c2)cc1" .
Data returned: 76 to 78 °C

Data request: Now consider N#CC(C(=O)CF)c1cccc(Cl)c1 (stereo not given) .
Data returned: 90 to 96 °C

----------
Measured melting point of individual entries

Examples with their reported melting point follow.
COc1ccc(C(=Cc2ccncc2)c2ccncc2)cc1OC1CCCC1 ... 136 to 138 °C
Cn1ccnc1C(O)(c1ccccc1)c1ccc(Cl)cc1 (stereo not drawn) ... 185 to 186 °C

Data request: If you can, please state the reported melting point value of "CN1C2CCC1CN(c1ccc(Br)nn1)C2" .
Data returned: 118 to 120 °C

----------
measured.property: melting point

Examples with their reported melting point follow.
Cc1ccc2c(c1)c1c(CC(=O)N(C)C)nn(-c3ccccc3)c(=O)c1n2C ... 209 to 210 °C
CCOC(=O)CN(C)S(=O)(=O)c1ccsc1C(=O)OC ... 84 to 85 °C
CC1(C)C(=N)N(CC(N)=O)c2ccccc21 ... 167 to 173 °C
CC(C)OC(=O)n1ncc2cc(C(O)(c3cn(C)c4ccccc34)C(F)(F)F)ccc21 (stereo not given) ... 105 to 106 °C
O=C/C=C/c1cc2ccccc2[nH]1 ... 203 to 204 °C
CONC(=O)N1N=C(c2ccc([N+](=O)[O-])c(C)c2)c2cc3c(cc2CC1C)OCO3 (stereo not given) ... 192 to 195 °C

Data request: If you can, please state the reported melting point value of "CN1CC=C(c2cc3ccccc3c(=O)[nH]2)CC1" .
Data returned: 222 to 223 °C

Data request: Now consider O=C1CC2OC(CS(=O)c3ccccc3)CN12 (racemic) .
Data returned: 119 to 120 °C

Data request: Now consider "N#CC1c2ccccc2-c2ccccc21" .
Data returned: 152 to 154 °C

Data request: Now consider COC(=O)N1CCC(C2(NO)OCCO2)C(=O)C1 (stereo not given) .
Data returned: 150 to 152 °C

----------
Measured melting point of individual entries

Examples with their reported melting point follow.
Nc1nc(O)c2c(n1)CCCS2 ... > 300 °C
CS(=O)(=O)N1CCN([C@@H](CNC(=O)c2ccc(OCc3ccncc3)cc2)C(=O)NO)CC1 ... 213 °C
O=c1c2c(N3CCNCC3)cc(Cl)cc2n(Cc2ccccc2)c(=O)n1Cc1ccccc1Cl ... 120 to 125 °C

Data request: If you can, please state the reported melting point value of "CCCCC(=O)c1c(-c2ccc3c(Cl)c(OCc4nnn[nH]4)ccc3c2)oc2ccccc12" .
Data returned: 168 to 169 °C

Data request: Now consider "CCCCCCCCCCC[C@H](CC(=O)N[C@@H](CO)C(=O)OCc1ccccc1)OC(=O)CCCCCC" .
Data returned: 46 to 48 °C

Data request: Now consider CC(C)(C)OC(=O)C1CCCN1Cc1ccc2cc(NC(=O)c3ccc(-c4ccc(Cl)cc4)cc3)ccc2n1 (stereo not drawn) .
Data returned: 163 to 166 °C

----------
measured.property: melting point

Data request: If you can, please state the reported melting point value of "CNC(=O)C1(Nc2nc(Nc3cc4c(cc3OC)CCN(CC(=O)N(C)C)CC4)ncc2Cl)CCCC1" .
Data returned: 75 to 87 °C

Data request: Now consider "CCOC(=O)C1=COc2ccc(OC(C)=O)cc2O1" .
Data returned: 66 °C

Data request: Now consider "COc1ccc2cc(S(=O)(=O)Cl)cc(OC)c2c1" .
Data returned: 134 °C

Data request: Now consider "Nc1nc2c(s1)CCN(CC=Cc1c[nH]c3ccccc13)CC2" .
Data returned: 155 to 160 °C

Data request: Now consider "O=C(O)c1ccc(-c2nnc(-c3ccccc3[N+](=O)[O-])o2)cc1" .
Data returned: 239 to 240 °C

Data request: Now consider "CC(C)Cc1nc2c(N)nc3ccccc3c2s1" .
Data returned: 123 to 125 °C

Data request: Now consider "CC=CCSc1cc(C(=O)O)cc([N+](=O)[O-])c1-c1ccccc1" .
Data returned: 138 to 140 °C

Data request: Now consider "Cc1nn(-c2cccnc2)cc1NCC1CC1" .
Data returned: 73 to 75 °C

Data request: Now consider CC(Cc1nc(-c2ccccc2)nc2ccccc12)C(=O)NC(CO)c1ccccc1 (centres undefined) .
Data returned: 199 °C
